# MEASURED_TARGET: TDP-43 1-260 (NTD-RRM1-RRM2) (Homo sapiens, UniProt Q13148)
# Sequence (Q13148 1-260): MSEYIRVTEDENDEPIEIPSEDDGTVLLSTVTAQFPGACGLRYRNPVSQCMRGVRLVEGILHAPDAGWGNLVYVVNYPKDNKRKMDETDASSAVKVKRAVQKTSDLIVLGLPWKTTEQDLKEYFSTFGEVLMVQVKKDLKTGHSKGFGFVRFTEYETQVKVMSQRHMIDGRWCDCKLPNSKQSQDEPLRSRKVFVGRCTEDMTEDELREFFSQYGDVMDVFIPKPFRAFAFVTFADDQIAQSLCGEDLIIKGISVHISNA
# EXPERIMENTAL_PROTOCOL: MST; apparent Kd; NMR: 40 mM HEPES pH 6.5, 300 mM NaCl, 4 mM DTT, 25 C, 25 uM protein; EMSA: same buffer, 25 C incubation, 6.25% PAGE 0.5x TBE at 4 C; MST and HTRF buffers not in material
# CONDITION_DETAILS: protein: recombinant; tags: His (MST: NT-647 labelled HisTDP-43; tag cleaved when needed); single strand
MEASURED_PARAMETER: pKd
Convention used: pKd is expressed as -log10 of the molar concentration.

Inquiry: Can you share its pKd? I mean this binder: UGUGUGUG (ssRNA) [(UG)4]
Reply text: 6.61

Inquiry: Check UGUGUGUGUGUG (ssRNA) [(UG)6] too.
Reply text: 7.55
